Data export: Ki values recorded with sigma-1 receptor (Cavia porcellus, UniProt Q60492).
Sequence (Q60492 whole entry): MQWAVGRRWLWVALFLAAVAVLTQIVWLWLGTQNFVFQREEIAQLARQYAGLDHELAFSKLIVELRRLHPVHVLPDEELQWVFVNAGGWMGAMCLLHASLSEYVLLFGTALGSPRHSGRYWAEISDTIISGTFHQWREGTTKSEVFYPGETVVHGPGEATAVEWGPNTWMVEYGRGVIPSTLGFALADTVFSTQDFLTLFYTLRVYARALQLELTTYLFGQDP
Counter-ions that a name gives are not always drawn.

c1ccc(CN2C[C@@H]3[C@H](C2)N(CC2CC2)CCc2c(-c4ccccc4)nnn23)cc1 (racemic) [Example 32, hydrochloride]	< 100 nM
CCCCCN1C[C@@H]2[C@@H](C1)n1nnc(-c3ccccc3)c1CN2CCC (racemic) [Example 11, hydrochloride]	< 100 nM
c1ccc(CN2C[C@@H]3[C@@H](C2)NCc2c(-c4ccccc4)nnn23)cc1 [Example 22, hydrochloride]	< 100 nM
CS(=O)(=O)N1Cc2c(-c3ccccc3)nnn2[C@@H]2CN(Cc3ccccc3)C[C@H]21 (racemic) [Example 20, hydrochloride]	100 to 500 nM
c1ccc(CN2C[C@@H]3NCCc4c(-c5ccccc5)nnn4[C@@H]3C2)cc1 (racemic) [Example 30, hydrochloride]	< 100 nM
O=C1N[C@H]2CNC[C@H]2n2nnc(-c3ccccc3)c21 (racemic) [Example 36, hydrochloride]	> 500 nM
Fc1ccc(CN2C[C@@H]3NCc4c(-c5ccccc5)nnn4[C@H]3C2)cc1 [Example 23, hydrochloride]	> 500 nM
Clc1ccc(CN2C[C@@H]3[C@@H](C2)NCc2c(-c4ccccc4)nnn23)cc1 [Example 25, hydrochloride]	< 100 nM
c1ccc(-c2nnn3c2CN[C@@H]2CN(C4CCOCC4)C[C@H]23)cc1 (racemic) [Example 19, hydrochloride]	> 500 nM
CCCN1Cc2c(-c3ccccc3)nnn2[C@@H]2CN(Cc3ccccc3)C[C@@H]21 (racemic)	100 to 500 nM

Quick check: Ki of c1ccc(CN2C[C@@H]3NCc4c(-c5ccccc5)nnn4[C@H]3C2)cc1 [Example 21, hydrochloride] ?
> 500 nM

Same again, this time with Fc1ccccc1-c1nnn2c1CN[C@@H]1CN(Cc3ccccc3)C[C@H]12 (racemic) [Example 28, hydrochloride]
< 100 nM

Same again, this time with Fc1ccc(CN2C[C@@H]3[C@@H](C2)NCc2c(-c4ccccc4)nnn23)cc1 (racemic) [Example 8, hydrochloride]
< 100 nM

Same again, this time with c1ccc(-c2nnn3c2CN[C@@H]2CN(CC4CC4)C[C@H]23)cc1 (racemic) [Example 18, hydrochloride]
100 to 500 nM
